System: 565726-208-R1-J5-PDC complex spheroids, growth inhibition;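 also: spheroids exposed to compounds for seven days before readout; 100% = DMSO vehicle control viability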
experiment_summary: Anticancer human tumor 565726-208-R1-J5-PDC patient-derived pancreatic adenocarcinoma cell line growth inhibition [RAS]
condition: second compound 0.03 µM; first compound 0.0316 µM; active compounds read low
Catalogue of compounds with associated viability, T/C
reported_metric: viability, T/C

[
  {
    "compound": "CCN1CCN(Cc2ccc(Nc3ncc(F)c(-c4cc(F)c5nc(C)n(C(C)C)c5c4)n3)nc2)CC1 + CCn1c(-c2cccnc2C(C)OC)c2c3cc(ccc31)N1CCOC(CC(NC(=O)C(C(C)C)N(C)C(=O)C3(F)CCN(C(=O)C#CC(C)(C)N(C)C)CC3)C(=O)N3CCCC(N3)C(=O)OCC(C)(C)C2)C1",
    "experimental_value": "85.1%"
  },
  {
    "compound": "CC(Nc1ccc2c(c1)OCCn1cc(N3C(=O)OCC3C(F)F)nc1-2)C(N)=O (configuration not stated) + CCn1c(-c2cccnc2C(C)OC)c2c3cc(ccc31)N1CCOC(CC(NC(=O)C(C(C)C)N(C)C(=O)C3(F)CCN(C(=O)C#CC(C)(C)N(C)C)CC3)C(=O)N3CCCC(N3)C(=O)OCC(C)(C)C2)C1",
    "experimental_value": "93%"
  },
  {
    "compound": "O=C(c1ccc(F)c(F)c1Nc1ccc(I)cc1F)N1CC(O)([C@@H]2CCCCN2)C1 + CCn1c(-c2cccnc2C(C)OC)c2c3cc(ccc31)N1CCOC(CC(NC(=O)C(C(C)C)N(C)C(=O)C3(F)CCN(C(=O)C#CC(C)(C)N(C)C)CC3)C(=O)N3CCCC(N3)C(=O)OCC(C)(C)C2)C1",
    "experimental_value": "77.9%"
  },
  {
    "compound": "CC(C)NCC(C(=O)N1CCN(c2ncnc3c2C(C)CC3O)CC1)c1ccc(Cl)cc1 (configuration not stated) + CCn1c(-c2cc(N3CCN(C)CC3)cnc2C(C)OC)c2c3cc(ccc31)-c1csc(n1)CC(NC(=O)C1CC1C)C(=O)N1CCCC(N1)C(=O)OCC(C)(C)C2",
    "experimental_value": "32%"
  },
  {
    "compound": "C=CC(=O)N1CCN(c2nc(OCC3CCCN3C)nc3c(F)c(-c4nc(N)cc(C)c4C(F)(F)F)c(Cl)cc23)C(C)C1 (configuration not stated) + CCn1c(-c2cccnc2C(C)OC)c2c3cc(ccc31)N1CCOC(CC(NC(=O)C(C(C)C)N(C)C(=O)C3(F)CCN(C(=O)C#CC(C)(C)N(C)C)CC3)C(=O)N3CCCC(N3)C(=O)OCC(C)(C)C2)C1",
    "experimental_value": "111%"
  },
  {
    "compound": "CC(=O)OC12COC1CC(O)C1(C)C(=O)C(O)C3=C(C)C(OC(=O)C(O)C(NC(=O)OC(C)(C)C)c4ccccc4)CC(O)(C(OC(=O)c4ccccc4)C21)C3(C)C (configuration not stated) + CCn1c(-c2cc(N3CCN(C)CC3)cnc2C(C)OC)c2c3cc(ccc31)-c1csc(n1)CC(NC(=O)C1CC1C)C(=O)N1CCCC(N1)C(=O)OCC(C)(C)C2",
    "experimental_value": "14.5%"
  },
  {
    "compound": "CC(C)n1nc(-c2ccc3oc(N)nc3c2)c2c(N)ncnc21 + CCn1c(-c2cc(N3CCN(C)CC3)cnc2C(C)OC)c2c3cc(ccc31)-c1csc(n1)CC(NC(=O)C1CC1C)C(=O)N1CCCC(N1)C(=O)OCC(C)(C)C2",
    "experimental_value": "13.2%"
  }
]

Recorded values, source PubChem BioAssay AID2060899.
